Target: human gpr-54 receptor (human, UniProt Q969F8 1-398)
Sequence (Q969F8 whole entry): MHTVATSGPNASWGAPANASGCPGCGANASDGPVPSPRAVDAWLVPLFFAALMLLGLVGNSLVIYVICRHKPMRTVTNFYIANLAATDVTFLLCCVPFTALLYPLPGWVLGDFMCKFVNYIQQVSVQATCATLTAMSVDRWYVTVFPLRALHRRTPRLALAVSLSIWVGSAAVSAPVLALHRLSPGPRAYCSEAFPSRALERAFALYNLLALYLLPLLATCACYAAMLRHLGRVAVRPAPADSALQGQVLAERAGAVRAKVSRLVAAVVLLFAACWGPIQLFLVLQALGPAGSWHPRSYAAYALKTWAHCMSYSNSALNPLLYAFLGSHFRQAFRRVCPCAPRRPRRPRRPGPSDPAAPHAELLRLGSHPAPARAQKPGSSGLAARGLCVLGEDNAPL
Assay: cell-based or functional assay
Non-standard residues stand in square brackets, D forms with d. No end group written: not given here.
recorded-endpoint: Inhibition of IP stimulation by 10nM Agonist: IC50 (nM)
Answer in nM, number only, no unit symbol.

Enquiry: Inhibition of IP stimulation by 10nM Agonist: IC50 for Ac-YNWNGFG[dW]RF-NH2 (SMILES CC(=O)N[C@@H](Cc1ccc(O)cc1)C(=O)N[C@@H](CC(N)=O)C(=O)N[C@@H](Cc1c[nH]c2ccccc12)C(=O)N[C@@H](CC(N)=O)C(=O)NCC(=O)N[C@@H](Cc1ccccc1)C(=O)NCC(=O)N[C@H](Cc1c[nH]c2ccccc12)C(=O)N[C@@H](CCCNC(=N)N)C(=O)N[C@@H](Cc1ccccc1)C(N)=O, kisspeptin-10 analogue; also called acYNWNGFG[(D)-W]RF) [228] ?
Return: 50

Enquiry: Please do the same for Ac-[dF]NWNGFG[dW]RF-NH2 (SMILES CC(=O)N[C@H](Cc1ccccc1)C(=O)N[C@@H](CC(N)=O)C(=O)N[C@@H](Cc1c[nH]c2ccccc12)C(=O)N[C@@H](CC(N)=O)C(=O)NCC(=O)N[C@@H](Cc1ccccc1)C(=O)NCC(=O)N[C@H](Cc1c[nH]c2ccccc12)C(=O)N[C@@H](CCCNC(=N)N)C(=O)N[C@@H](Cc1ccccc1)C(N)=O) [244] as well.
Return: 10

Enquiry: // next record Ac-[dA]NWNSFG[dW]RF-NH2 (SMILES CC(=O)N[C@H](C)C(=O)N[C@@H](CC(N)=O)C(=O)N[C@@H](Cc1c[nH]c2ccccc12)C(=O)N[C@@H](CC(N)=O)C(=O)N[C@@H](CO)C(=O)N[C@@H](Cc1ccccc1)C(=O)NCC(=O)N[C@H](Cc1c[nH]c2ccccc12)C(=O)N[C@@H](CCCNC(=N)N)C(=O)N[C@@H](Cc1ccccc1)C(N)=O) [247]
Return: 8

Enquiry: Same thing, different binder: Ac-[dA]NWNPFG[dW]RF-NH2 (SMILES CC(=O)N[C@H](C)C(=O)N[C@@H](CC(N)=O)C(=O)N[C@@H](Cc1c[nH]c2ccccc12)C(=O)N[C@@H](CC(N)=O)C(=O)N1CCC[C@H]1C(=O)N[C@@H](Cc1ccccc1)C(=O)NCC(=O)N[C@H](Cc1c[nH]c2ccccc12)C(=O)N[C@@H](CCCNC(=N)N)C(=O)N[C@@H](Cc1ccccc1)C(N)=O) [274]
Return: 0.1

Further cases:
Enquiry: Inhibition of IP stimulation by 10nM Agonist: IC50 lookup needed for Ac-[dA]NWN[dA]FGLRF-NH2 (SMILES CC(=O)N[C@H](C)C(=O)N[C@@H](CC(N)=O)C(=O)N[C@@H](Cc1c[nH]c2ccccc12)C(=O)N[C@@H](CC(N)=O)C(=O)N[C@H](C)C(=O)N[C@@H](Cc1ccccc1)C(=O)NCC(=O)N[C@@H](CC(C)C)C(=O)N[C@@H](CCCNC(=N)N)C(=O)N[C@@H](Cc1ccccc1)C(N)=O) [277] , thanks.
Return: 0.05

Enquiry: Cool, now [dA]NWNGFG[dW]RF-NH2 [Peptide 234]
Return: 70

Enquiry: Okay, and Ac-FGL[dR]W-NH2 (not fully specified, kisspeptin-10 analogue; also called acFGL[(D)-R]W) [200] ?
Return: 300

Enquiry: Now consider Ac-AGLRW-NH2 (kisspeptin-10 analogue; also called acAGLRW) [202] and answer again.
Return: 10

Enquiry: Try this binder too: Ac-YNWN[dW]FG[dW]RF-NH2 (SMILES CC(=O)N[C@@H](Cc1ccc(O)cc1)C(=O)N[C@@H](CC(N)=O)C(=O)N[C@@H](Cc1c[nH]c2ccccc12)C(=O)N[C@@H](CC(N)=O)C(=O)N[C@H](Cc1c[nH]c2ccccc12)C(=O)N[C@@H](Cc1ccccc1)C(=O)NCC(=O)N[C@H](Cc1c[nH]c2ccccc12)C(=O)N[C@@H](CCCNC(=N)N)C(=O)N[C@@H](Cc1ccccc1)C(N)=O, kisspeptin-10 analogue; also called acYNWN[(D)-W]FG[(D)-W]RF) [229]
Return: 8000
